pIC50: −log10 of the molar value.
Values of pIC50 reported for Prostaglandin G/H synthase 2 (Ovis aries, UniProt P79208) appear below.
readout.label: pIC50

>>> recorded_value("CCCCC/C=C\\C/C=C\\CCCCCCCC(=O)O")
4.03
>>> recorded_value("CC/C=C\\C/C=C\\C/C=C\\C/C=C\\C/C=C\\CCCC(=O)O")
5.15
>>> recorded_value("CC/C=C\\C/C=C\\C/C=C\\C/C=C\\CC/C=C/COCC(=O)O")
3.74
>>> recorded_value("CC/C=C\\C/C=C\\C/C=C\\C/C=C\\CCSCCCC(=O)O")
5.41
